Test: qHTS assay to identify small molecule agonists of the sonic hedgehog signaling (Shh) pathway (AID 1259368);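 also: NIH/3T3-derived 3T3Gli1-Luc cells carrying a stable Gli1-driven firefly luciferase reporter; nearly all actives have a fitted effect of over 15% in size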
Conditions: NIH/3T3 Gli1-Luc reporter, luciferase, 24 h; series mostly up to 92.4 µM
The source made the active and inactive calls. Calls follow the shape of the full dose curve.

>  <compound>
C[C@H]1[C@@H]2Cc3ccc(O)cc3[C@@]1(C)CCN2C

>  <activity change>
inactive

$$$$
>  <compound>
CCCC[N+]1(C)[C@@H]2CC(OC(=O)[C@H](CO)c3ccccc3)C[C@H]1[C@@H]1O[C@@H]12 (stereo partly drawn)

>  <activity change>
inactive

$$$$
>  <compound>
CCCCCCCCCCCCN(C)C

>  <activity change>
inactive

$$$$
>  <compound>
CCCSP(=S)(OCC)Oc1ccc(SC)cc1 (stereo not drawn)

>  <activity change>
inactive

$$$$
>  <compound>
CC1(C)[C@H](C(=O)O[C@H](C#N)c2cccc(Oc3ccccc3)c2)[C@@H]1C=C(Br)Br

>  <activity change>
inactive

$$$$
>  <compound>
NP(N)(=O)NC(=O)c1ccc(F)cc1

>  <activity change>
inactive

$$$$
>  <compound>
CN(C)N

>  <activity change>
inactive

$$$$
>  <compound>
CCCCC(CC)CO[N+](=O)[O-] (stereo not drawn)

>  <activity change>
inactive

$$$$
>  <compound>
N#CC(C#N)=Cc1ccc(O)c(O)c1

>  <activity change>
inactive

$$$$
>  <compound>
CCC[N+](CCC)(CCC)CCC

>  <activity change>
inactive

$$$$
>  <compound>
CC[N+]1(C)CCCC(OC(=O)C(O)(c2ccccc2)c2ccccc2)C1 (stereo not drawn)

>  <activity change>
inactive

$$$$
>  <compound>
C=C(Cl)Cl

>  <activity change>
inactive

$$$$
>  <compound>
C1CCNCC1

>  <activity change>
inactive

$$$$

----------
Target: Acetylcholinesterase (Homo sapiens) (UniProt P22303)
Sequence (P22303 whole entry, looked up): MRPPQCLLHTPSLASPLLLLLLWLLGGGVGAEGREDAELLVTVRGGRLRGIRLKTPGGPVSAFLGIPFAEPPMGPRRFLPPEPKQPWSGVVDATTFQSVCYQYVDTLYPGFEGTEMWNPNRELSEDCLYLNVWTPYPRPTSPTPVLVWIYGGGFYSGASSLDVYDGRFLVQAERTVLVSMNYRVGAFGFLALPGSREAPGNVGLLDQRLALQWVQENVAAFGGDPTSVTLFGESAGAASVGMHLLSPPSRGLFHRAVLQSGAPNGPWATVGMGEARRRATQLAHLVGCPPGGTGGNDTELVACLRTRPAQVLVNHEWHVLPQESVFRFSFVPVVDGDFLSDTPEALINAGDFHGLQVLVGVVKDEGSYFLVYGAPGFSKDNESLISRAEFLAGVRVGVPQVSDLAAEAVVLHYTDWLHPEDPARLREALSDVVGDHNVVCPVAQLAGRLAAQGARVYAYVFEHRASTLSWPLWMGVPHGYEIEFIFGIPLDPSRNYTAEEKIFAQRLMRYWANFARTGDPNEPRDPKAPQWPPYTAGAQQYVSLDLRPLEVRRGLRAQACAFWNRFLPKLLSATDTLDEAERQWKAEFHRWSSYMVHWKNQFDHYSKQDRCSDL
Experiment: Acetylcholinesterase (AChE) small molecule antagonists: colormetric cell-based qHTS assay (AID 1347395); also: nearly all actives have a fitted effect of over 30% in size
Conditions: SH-SY5Y cells AChE activity, colorimetric (Ellman); series mostly up to 115 µM
Records with an inconclusive call do not appear. The source made the active and inactive calls. Calls come from the whole dose curve.
Outcomes: active, inactive

>  <molecule>
CCCN(CCC)C(=O)Cc1c(-c2ccc(Cl)cc2)nc2ccc(Cl)cn12

>  <discrete_label>
inactive

$$$$
>  <molecule>
COC1=CC(=O)O[C@@H](/C=C/c2ccc3c(c2)OCO3)C1

>  <discrete_label>
inactive

$$$$
>  <molecule>
CCNC(=O)NC(=O)/C(C#N)=N/OC

>  <discrete_label>
inactive

$$$$
>  <molecule>
CCCSP(=S)(OCC)Oc1ccc(SC)cc1 (configuration not stated)

>  <discrete_label>
inactive

$$$$
>  <molecule>
CNC(=O)Oc1cccc(N=CN(C)C)c1

>  <discrete_label>
active

$$$$
>  <molecule>
C1CCNCC1

>  <discrete_label>
inactive

$$$$
>  <molecule>
O=C(Cl)OCCOCCOC(=O)Cl

>  <discrete_label>
inactive

$$$$

----------
Target: Estrogen receptor (Homo sapiens) (UniProt P03372)
Sequence (P03372 whole entry, looked up): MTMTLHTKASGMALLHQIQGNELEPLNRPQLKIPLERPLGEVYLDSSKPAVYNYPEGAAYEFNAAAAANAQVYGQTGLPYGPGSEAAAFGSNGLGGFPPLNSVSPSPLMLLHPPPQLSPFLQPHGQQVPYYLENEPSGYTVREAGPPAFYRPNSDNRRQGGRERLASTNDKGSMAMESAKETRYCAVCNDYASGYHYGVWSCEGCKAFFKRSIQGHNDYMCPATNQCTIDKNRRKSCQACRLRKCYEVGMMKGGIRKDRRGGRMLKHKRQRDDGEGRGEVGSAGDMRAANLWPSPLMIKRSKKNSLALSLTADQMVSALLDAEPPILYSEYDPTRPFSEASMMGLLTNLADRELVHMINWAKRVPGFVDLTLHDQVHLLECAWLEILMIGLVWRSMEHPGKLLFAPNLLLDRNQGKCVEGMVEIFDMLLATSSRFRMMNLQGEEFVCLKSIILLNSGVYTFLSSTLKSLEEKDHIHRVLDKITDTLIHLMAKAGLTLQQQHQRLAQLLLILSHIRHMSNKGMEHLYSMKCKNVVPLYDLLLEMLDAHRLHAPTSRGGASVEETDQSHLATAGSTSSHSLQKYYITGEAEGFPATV
Experiment: qHTS assay to identify small molecule antagonists of the estrogen receptor alpha (ER-alpha) signaling pathway using the BG1 cell line in the presence of 0.1 nM 17-beta-estradiol (AID 1259244); also: nearly all actives have a fitted effect of over 50% in size
Details: VM7Luc4E2 (BG1) ERE-luciferase, antagonist mode, 0.1 nM E2, 22 h; series mostly up to 92.4 µM
Inconclusive results are not listed. Calls of active or inactive are those of the source. The call rests on the fitted dose curve; in most records, active means well fitted inhibition curve with a large enough effect in the repeat runs; inconclusive means weak or mixed curves; inactive means no such curve, though single readings can be large or run the other way.

>  <compound>
O=C(Cc1ccccc1)OCCc1ccccc1

>  <outcome>
inactive

$$$$
>  <compound>
C[C@H]1O[C@H](OC2[C@@H](O)[C@@H](O)C(O)[C@H](O)[C@H]2O)[C@@H](N)C[C@@H]1N=C(N)C(=O)O (stereo partly drawn)

>  <outcome>
inactive

$$$$
>  <compound>
NC(=O)CF

>  <outcome>
inactive

$$$$
>  <compound>
NP(N)(=O)NC(=O)c1ccc(F)cc1

>  <outcome>
inactive

$$$$
>  <compound>
CCCN(CCC)C(=O)Cc1c(-c2ccc(Cl)cc2)nc2ccc(Cl)cn12

>  <outcome>
inactive

$$$$
>  <compound>
O=C(O)C(F)(F)C(F)(F)C(F)(F)C(F)(F)C(F)(F)F

>  <outcome>
inactive

$$$$
>  <compound>
CC(C)(C)NCC(O)c1cc(Cl)c(N)c(C(F)(F)F)c1 (stereo not drawn)

>  <outcome>
inactive

$$$$
>  <compound>
C[N+]1(CCF)[C@@H]2CC[C@H]1CC(OC(=O)C(O)(c1ccccc1)c1ccccc1)C2 (stereo partly drawn)

>  <outcome>
inactive

$$$$
>  <compound>
C=CCc1ccccc1O

>  <outcome>
inactive

$$$$
>  <compound>
CN[C@@H](C)[C@H](O)c1ccccc1

>  <outcome>
inactive

$$$$
>  <compound>
NNCCO

>  <outcome>
inactive

$$$$
>  <compound>
Cc1nnc(-c2ccccc2)c(=O)n1N

>  <outcome>
inactive

$$$$
>  <compound>
CC(C)c1ccc(OP(=O)(Oc2ccc(C(C)C)cc2)Oc2ccc(C(C)C)cc2)cc1

>  <outcome>
inactive

$$$$
